Listed here are compounds together with their documented pIC50.
- target: PIM-3 kinase (Homo sapiens, UniProt Q86V86)
pIC50: −log10 of the molar value.
measured-parameter: pIC50

> print(dat)
                                   compound  value.reported
1  C=C(CN1CCNCC1)c1c(OC)ccc2c1O/C(=C\c1n[nH]c3ncccc13)C2=O            7.92
2  CCOc1ccc2c(c1C(C)N1CCNCC1)O/C(=C\c1n[nH]c3ncccc13)C2=O (stereo not shown)            8.89
3  COc1ccc2c(c1CN1[C@H](C)CNC[C@@H]1C)O/C(=C\c1n[nH]c3ncccc13)C2=O            6.82
4  COc1ccc2c(c1CN1CC3CCC(C1)N3)O/C(=C\c1n[nH]c3ncccc13)C2=O            9.54

====

- Test system: MiaPaca-2
- method-description: Growth inhibitory activity on human pancreatic cancer cell lines (Example 4, WST-8)
- Type: cell-based
- assay-setup: MIA PaCa-2, Example 4: 72 hours, 3000 cells/well
pIC50: −log10 of the molar value.
Listed here are compounds together with their documented pIC50.
measured-parameter: pIC50

> print(dat)
                                   compound  measured.parameter  value.reported
1  COc1ccc2c(c1CN1CC3CCC(C1)N3)O/C(=C\c1n[nH]c3ncccc13)C2=O               pIC50            5.74
2  CCOc1ccc2c(c1C(C)N1CCNCC1)O/C(=C\c1n[nH]c3ncccc13)C2=O (stereo not drawn)               pIC50            5.89
3  COc1ccc2c(c1CN1CCC[C@H](N)C1)O/C(=C\c1n[nH]c3ncccc13)C2=O               pIC50            5.54
4  CC(c1c(OCC2CC2)ccc2c1O/C(=C\c1n[nH]c3ncccc13)C2=O)N1CCNCC1 (stereo not drawn)               pIC50            5.42
5  O=C1/C(=C/c2n[nH]c3ncccc23)Oc2c1ccc(OC(F)F)c2CC1CCNCC1               pIC50            5.49
6  O=C1/C(=C/c2n[nH]c3ncccc23)Oc2c1ccc(F)c2CC1CCNCC1               pIC50            5.46
